Every entry's value here was drawn from the supplement of paper PMC11208160.

Please respond with reported recombinant barcode read abundance (log10) for every item in the list.
# RUN DESCRIPTION: recombinant barcode read abundance after kanamycin selection (control-corrected) (log10(CPM+1)); higher = more efficient recombination; sequences stand for … in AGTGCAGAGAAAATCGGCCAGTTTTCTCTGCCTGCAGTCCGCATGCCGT…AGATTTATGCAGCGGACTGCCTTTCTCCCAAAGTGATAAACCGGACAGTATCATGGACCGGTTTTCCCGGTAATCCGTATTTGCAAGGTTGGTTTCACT; site = the 11-nt target
Numbers only.

Example results:
SEQUENCE TEXT	VALUE
CAGAAGTCTTGGGTTCTAACCTGTTGCTT (site CAGAAGTCTAA)	1.44
CAATGCTCTTGGGTTCTAACCTGTTGCCT (site CAGTGCTCTTG)	0.113
CCTTGCCCTTGGGTTCTAACCTGTTGCCT (site CGTTGCCCTAG)	0.1
CTCTCGTCTTGGGTTCTAACCTGTTGCGG (site GGACGTGCTAG)	0.127
TCCTAATCTTGGGTTCTAACCTGTTGCTT (site CGGGCTACTTG)	0.284

Below is a list of sequences. For each, state its recorded recombinant barcode read abundance (log10).
1. TTAAGACCTTGGGTTCTAACCTGTTGCCT (site TTAAGACCTAG)
2. TACTGGGCTTGGGTTCTAACCTGTTGCGG (site TACTGGGCTCA)
3. TATGGGGCTTGGGTTCTAACCTGTTGCCT (site TATGGGGCTAG)

Outgoing:
1: 1.37; 2: 0.316; 3: 0.246

* * *

# RUN DESCRIPTION: recombinant UMI read abundance after kanamycin selection (control-corrected) (log10(CPM+1)); higher = more efficient recombination; extreme values may be limits of the assay; sequences stand for … in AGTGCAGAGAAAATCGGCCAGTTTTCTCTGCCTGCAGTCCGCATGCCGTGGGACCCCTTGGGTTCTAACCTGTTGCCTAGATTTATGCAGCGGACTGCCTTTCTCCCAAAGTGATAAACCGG…AGGTTGGTTTCACT; site = the 11-nt donor
TEST READOUT: recombinant UMI read abundance (log10)
Answers are plain numbers.

SEQUENCE TEXT	recombinant UMI read abundance (log10)
CCTAATACATGGACCGGTTTTCCCGGTAATCCGTATTTGAC (site CCTAATACTGC)	0
CGGGAGTCATGGACCGGTTTTCCCGGTAATCCGTATTTGAC (site CGGGAGTCTGT)	0.147
AATGTGTCATGGACCGGTTTTCCCGGTAATCCGTATTTGAA (site AATGTGTCTAT)	0.324
AGGTCCCCATGGACCGGTTTTCCCGGTAATCCGTATTTGTG (site AGGTACCCTCA)	0.0207

Go through the items and report each one's recombinant UMI read abundance (log10).
1. CTTCTCTCATGGACCGGTTTTCCCGGTAATCCGTATTTGCT (site CTTCTCTCTAG)
2. TTAAGTCCATGGACCGGTTTTCCCGGTAATCCGTATTTGTA (site TTAAGTCCTTA)
3. CTACCGTCATGGACCGGTTTTCCCGGTAATCCGTATTTGGG (site CTACCGTCTCC)
4. CAAAGCTCATGGACCGGTTTTCCCGGTAATCCGTATTTGAA (site CAATGCTCTTT)
5. CACGACCCATGGACCGGTTTTCCCGGTAATCCGTATTTGTT (site CACGGCCCTAA)

Outgoing:
[2.48, 1.44, 0.901, 0.0194, 0.0138]

* * *

# RUN DESCRIPTION: recombinant UMI read abundance after kanamycin selection (control-corrected) (log10(CPM+1)); higher = more efficient recombination; extreme values may be limits of the assay; sequences stand for … in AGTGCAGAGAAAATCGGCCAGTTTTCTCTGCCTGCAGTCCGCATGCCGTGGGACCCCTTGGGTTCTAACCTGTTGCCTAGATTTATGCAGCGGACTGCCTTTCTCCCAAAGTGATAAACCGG…AGGTTGGTTTCACT; site = the 11-nt donor
Provide the reported recombinant UMI read abundance (log10) of each item.
Give bare numbers.

The cases that follow already have their recombinant UMI read abundance (log10) on record.
SEQUENCE TEXT	recombinant UMI read abundance (log10)
AGGATAACATGGACCGGTTTTCCCGGTAATCCGTATTTGCA (site AGGATAACTTG)	2.55
GTACATGCATGGACCGGTTTTCCCGGTAATCCGTATTTGGT (site GTACATGCTAC)	1.43
GTTGGAACATGGACCGGTTTTCCCGGTAATCCGTATTTGTT (site GTTGGAACTAA)	2

Batch request: recombinant UMI read abundance (log10) per item, same order as input.
1. GGCGAACCATGGACCGGTTTTCCCGGTAATCCGTATTTGGG (site GGCGAACCTCC)
2. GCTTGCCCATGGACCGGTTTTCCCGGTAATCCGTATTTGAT (site GCTTGGCCTAT)
3. GACAAGACATGGACCGGTTTTCCCGGTAATCCGTATTTGTG (site GACAAGACTCA)
4. CCTAAAGCATGGACCGGTTTTCCCGGTAATCCGTATTTGGT (site CCTAAAGCTAT)
5. TTAGTCGCATGGACCGGTTTTCCCGGTAATCCGTATTTGCG (site CTAGTCGCTCG)
6. CGGACATCATGGACCGGTTTTCCCGGTAATCCGTATTTGTT (site CGGACATCTAT)
7. AAGCCAGCATGGACCGGTTTTCCCGGTAATCCGTATTTGGG (site AAGCCAGCTCC)

Outgoing:
[0, 0.0246, 1.73, 0, 0.00978, 0, 0.00996]

For every item below, please supply its recombinant UMI read abundance (log10).
1. CTATTGGCATGGACCGGTTTTCCCGGTAATCCGTATTTGTA (site CTATTGGCTTA)
2. TCGAAGACATGGACCGGTTTTCCCGGTAATCCGTATTTGCA (site AGGAAGACTTG)
3. CGGAAGTCATGGACCGGTTTTCCCGGTAATCCGTATTTGCC (site CGGAAGTCTGG)
4. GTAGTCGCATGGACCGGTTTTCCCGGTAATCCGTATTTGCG (site GGAGTCGCTCG)
5. CTTGCGGCATGGACCGGTTTTCCCGGTAATCCGTATTTGCT (site ATTGCGGCTAG)
6. TAGTCGACATGGACCGGTTTTCCCGGTAATCCGTATTTGGG (site CAGTCGACTCC)

Outgoing:
1. 1.84
2. 0.13
3. 2.88
4. 0.0136
5. 0.00273
6. 0.0191

# map each sequence to its recombinant UMI read abundance (log10)
1. TCGTTAGCATGGACCGGTTTTCCCGGTAATCCGTATTTGTG (site CCGTTAGCTCA)
2. GACTCCTCATGGACCGGTTTTCCCGGTAATCCGTATTTGCC (site GACTCCTCTGG)

Outgoing:
1. 0
2. 2.02

* * *

# RUN DESCRIPTION: recombinant UMI read abundance after kanamycin selection (control-corrected) (log10(CPM+1)); higher = more efficient recombination; extreme values may be limits of the assay; sequences stand for … in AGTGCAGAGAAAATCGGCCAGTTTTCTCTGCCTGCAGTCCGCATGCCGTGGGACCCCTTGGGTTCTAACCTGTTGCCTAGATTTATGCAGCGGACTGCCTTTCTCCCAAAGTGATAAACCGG…AGGTTGGTTTCACT; site = the 11-nt donor
TEST READOUT: recombinant UMI read abundance (log10)

Below: 4 sequences and their reported recombinant UMI read abundance (log10).
SEQUENCE TEXT	recombinant UMI read abundance (log10)
AATCCTCCATGGACCGGTTTTCCCGGTAATCCGTATTTGAT (site AATCCTCCTAT)	0.344
GCTGTTCCATGGACCGGTTTTCCCGGTAATCCGTATTTGGT (site GTTGTTCCTAC)	0
CCCTAGGCATGGACCGGTTTTCCCGGTAATCCGTATTTGCC (site CCCTAGGCTGG)	0
CGGAATCCATGGACCGGTTTTCCCGGTAATCCGTATTTGTC (site CGGAATCCTTA)	0

The record that follows has no recombinant UMI read abundance (log10) shown yet.
Incoming: Recorded recombinant UMI read abundance (log10) of AGTTCCCCATGGACCGGTTTTCCCGGTAATCCGTATTTGTA (site CGTTCCCCTTA) , please.
Outgoing: 0.025

* * *

# RUN DESCRIPTION: recombinant barcode read abundance after kanamycin selection (control-corrected) (log10(CPM+1)); higher = more efficient recombination; sequences stand for … in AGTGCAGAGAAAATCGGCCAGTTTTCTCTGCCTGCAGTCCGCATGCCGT…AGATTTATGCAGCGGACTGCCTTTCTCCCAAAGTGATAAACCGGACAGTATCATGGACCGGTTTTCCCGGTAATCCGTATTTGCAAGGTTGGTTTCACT; site = the 11-nt target
Kindly supply the reported recombinant barcode read abundance (log10) values for the records listed here.
One number for each entry.

Sample answers from the record:
SEQUENCE TEXT	VALUE
GGGCCCGCTTGGGTTCTAACCTGTTGCGG (site GGGCCCGCTCC)	1.29
AGCAGCTCTTGGGTTCTAACCTGTTGCCT (site AGCAGCTCTAG)	1.7
TGAATTACTTGGGTTCTAACCTGTTGCCT (site TGAAGTACTAG)	0.033
GTTGCCACTTGGGTTCTAACCTGTTGCCT (site GTAGCCACTAG)	0.137
CCGCGGCCTTGGGTTCTAACCTGTTGCCT (site GCGCGGCCTAG)	0.0271

Kindly give each listed record's recombinant barcode read abundance (log10).
1. TGATCCACTTGGGTTCTAACCTGTTGCCT (site CGATCCACTAG)
2. CCTAAGACTTGGGTTCTAACCTGTTGCCT (site CCTAAGACTGG)
3. AGCTTTGCTTGGGTTCTAACCTGTTGCCT (site AGCATTGCTAG)
4. GCAATCCCTTGGGTTCTAACCTGTTGCTA (site GCAATCCCTTA)
5. ATAAAGCCTTGGGTTCTAACCTGTTGCCT (site ATAAAGCCTAG)

Outgoing:
1: 0.0881; 2: 0.0702; 3: 0.015; 4: 1.48; 5: 2.05
